Recorded measurements of anti-inflammatory properties (I), potency ratio versus natural reference product, one per entry
# Test system: carrageenin-oedema
# assay-procedure: Anti-inflammatory activity, carrageenin-oedema method
# Format: in vivo
# applied-conditions: rats, oral 3 to 30 mg/Kg in carboxymethylcellulose; natural product = 1.0
// return a plain number; no unit text

Please review the entries below; each comes with its answer.
[
  {
    "compound": "O=C(Cc1ccccc1Nc1c(Cl)cccc1Cl)OCCOCCO[N+](=O)[O-] [Example 1b]",
    "value-observed": 1.3
  },
  {
    "compound": "CC(C(=O)OCCOCCO[N+](=O)[O-])c1ccc(C(=O)c2ccccc2)s1 (stereo not drawn) [Example 1g]",
    "value-observed": 0.9
  },
  {
    "compound": "CC(C(=O)OCCOCCO[N+](=O)[O-])c1ccc(-c2ccccc2)c(F)c1 (stereo not drawn) [Example 1e]",
    "value-observed": 1.0
  },
  {
    "compound": "CC(C)Cc1ccc(C(C)C(=O)O)cc1 (stereo not drawn) [IBUPROFEN, reference compound]",
    "value-observed": 1.0
  },
  {
    "compound": "CC(C(=O)O)c1ccc(C(=O)c2ccccc2)s1 (stereo not drawn) [TIAPROFENIC ACID, reference compound]",
    "value-observed": 1.0
  }
]

IN: Entry CC(C(=O)Oc1cccc(CO[N+](=O)[O-])c1)c1cccc(C(=O)c2ccccc2)c1 (stereo not drawn) [Example 1c] needs its anti-inflammatory properties (I), potency ratio versus natural reference product filled in; supply it.
OUT: 1.0

IN: For the compound COc1ccc2cc(C(C)C(=O)OCCOCCO[N+](=O)[O-])ccc2c1 (stereo not drawn) [Example 1h] , report anti-inflammatory properties (I), potency ratio versus natural reference product.
OUT: 1.3

IN: Quick one: give measured anti-inflammatory properties (I), potency ratio versus natural reference product for O=C(c1ccccc1)c1ccc2n1CCC2C(=O)OCCOCCO[N+](=O)[O-] (stereo not drawn) [Example 1f]
OUT: 1.0
